Test system: lactate dehydrogenase (LDH)
Assay Remarks: ELISA analysis of phage on LDH (irrelevant, non-specific target)
Assay type: binding
Condition Parameters: peptide binding to LDH polypeptide (non-specific binding); phage ELISA units read at 405 nm
Field 'label' (enum: y / n). Set to y when LDH (OD) is strictly under 1 OD; else n.

Consider the sequence WAASCFWGHVALGCGRNGQG (DGI-2-20R-3-A11; listed as Escherichia coli) . Is its LDH (OD) strictly less than 1 OD?
n

Next sequence up: DDIVCLFQFCTMFCWLDMGW (DDIVCLFQFCIMFCWLDMGW; DGI-2-20F-PP-H3; listed as Escherichia coli)
n

Next sequence up: RSQVRVVSRERSTPVLIHIRIECLLFSGWCVTSGSDEGVVWG [DGI-2-40F-4-F122]
y

Next sequence up: RGVNSDMPRLYICRADGQGQ (DGI-2-20F-PP-H6; listed as Escherichia coli)
y

Next sequence up: VQFAMTLSSRLWQHARHPLTDDAPPTVSFGTRRETLAGKA (DGI-2-40F-3-D3; listed as Escherichia coli)
y

Next sequence up: VCGQRVARMQLNKTIRKLDS (DGI-2-20F-PP-A6; listed as Escherichia coli)
n

Next sequence up: GVVRAQQGLRYELQGDRYRLRRTQWLTVTYCSPSWAFAGC (DGI-2-40F-3-B116; listed as Escherichia coli)
y

Next sequence up: RSYPRLCKQKGGVIGRMLPG (DGI-2-20F-PP-B2; listed as Escherichia coli)
n

Next sequence up: MSSTAWTDRILQRGIGLGPV (DGI-2-20R-4-F1212; listed as Escherichia coli)
n

Next sequence up: SRPGWCSRGTAWGFPGCSSS (DGI-2-20R-3-C4; listed as Escherichia coli)
n

Next sequence up: GGSLPVKSGQLVTCCTSKGG (DGI-2-20F-PP-F5; listed as Escherichia coli)
y

Next sequence up: RDTMCGSVSWGIPGCEYSGM (DGI-2-20R-4-G122; listed as Escherichia coli)
n

Next sequence up: GRWDGWEVCGIWGADDCASG (DGI-2-20R-4-H1; listed as Escherichia coli)
n

Next sequence up: VVRQGCMAFSGLCSGVTESE (DGI-2-20R-3-C8; listed as Escherichia coli)
n

Next sequence up: GRAGTSMTELVAWGFVQRVG (DGI-2-20F-PP-H10; listed as Escherichia coli)
y

Next sequence up: YAMSSRECGIRNSGLILSMW (DGI-2-20F-PP-C9; listed as Escherichia coli)
y

Next sequence up: RRTQPAYRSGADDRTSGFYCYVTSALSAGAWMPFLPRRLA (DGI-2-40F-3-A12; listed as Escherichia coli)
y

Next sequence up: FRMWVQSCFWGQPGTGCGEG (DGI-2-20R-3-D2; listed as Escherichia coli)
n

Next sequence up: TFTRDVAGPAVSFVRLHSWN (DGI-2-20F-PP-A9; listed as Escherichia coli)
n

Next sequence up: HGTRLRGVDYVMTWAGWQGYSSRKHVQQAVAGSSPGSDEL (DGI-2-40F-3-B1; listed as Escherichia coli)
y

Next sequence up: GLYRRAGDASVGFSRWGREDCQVYFSVECLLGSSWGGYS (GLYRRAGDASVGFSRWGRFDCQVYFSVECLLGSSWGGYS; DGI-2-40F-4-F12; listed as Escherichia coli)
y

Next sequence up: YGTAGLFLRRACTMSDPGDPLGRRGYTGWGVLWDEWVTGS (DGI-2-40F-3-C8; listed as Escherichia coli)
y

Next sequence up: GQISLAGVAVCSSERMLLAFSSRVFLPGLKVPVTTSQRGS (DGI-2-40F-3-A8; listed as Escherichia coli)
y

Next sequence up: LSLEGGWMWDTKGGDGGSAQ (DGI-2-20R-4-F93; listed as Escherichia coli)
n

Next sequence up: RFWSVSYQGGRVMCREWGYCLPI (DGI-2-40F-3-C92; listed as Escherichia coli)
y
